Reported Papp A→B at 1 h, 10 µM is given for each of the following compounds.
Assay: Apparent permeability from apical to basolateral side in human Caco2 cells at 10 uM incubated for 1 hr by HPLC-MS/MS analysis
Format: ADME, cell-based
Settings: Caco-2
I only need the number, in ×10⁻⁶ cm/s, no unit after it.

1) C[C@H]1O[C@@H](O[C@H]2[C@@H](O)C[C@H](O[C@H]3[C@@H](O)C[C@H](O[C@H]4CC[C@@]5(C)[C@H](CC[C@@H]6[C@@H]5C[C@@H](O)[C@]5(C)[C@@H](C7=CC(=O)OC7)CC[C@]65O)C4)O[C@@H]3C)O[C@@H]2C)C[C@H](O)[C@@H]1O [DIGOXIN] ... 1.6

Query block: Consider the compound shown here: CCN1C(=O)c2cccc3c(NS(=O)(=O)c4cc(Br)ccc4OC)ccc1c23 What is its recorded Papp A→B at 1 h, 10 µM?
Result block: 12.7

Query block: Here is the next compound: CCN1C(=O)c2cccc3c(S(=O)(=O)NC4CCCCC4)ccc1c23
Result block: 21.2
